compounds and their reported CC50
assay: Cytotoxicity against African green monkey Vero cells by MTS/PMS assay; format: cell-based; details: chlorocebus sabaeus

test smiles	CC50
Cc1ccc(/C=N/NC(=O)/C=C/c2ccc(C(C)C)cc2)cc1	25 µM
Cc1ccc(/C=N/NC(=O)/C=C/c2ccc(-c3ccccc3)cc2)cc1	> 294 µM
Cc1ccc(/C=N/NC(=O)N/C=C/c2ccc(C(C)(C)C)cc2)cc1	192 µM
Oc1ccc(/C=N/NC(=S)NCCc2ccccc2)cc1	87.8 µM
CC(C)(C)c1ccc(/C=C/NC(=O)N/N=C/c2ccc(O)cc2)cc1	10.4 µM
CCOc1ccc(/C=N/NC(=O)CC(=O)c2ccc(C(C)(C)C)cc2)cc1OCC	81 µM
Cc1ccc(-c2[nH]c3ccccc3c2/C=N/NC(=S)NCCc2ccccc2)cc1	7.8 µM
CCOc1ccc(/C=N/NC(=S)NCCc2ccccc2)cc1OCC	109 µM
CCOc1ccc(/C=N/NC(=O)/C=C/c2ccc(C(F)(F)F)cc2)cc1OCC	84.1 µM
Cc1ccc(/C=N/NC(=O)/C=C/c2ccc(C(F)(F)F)cc2)cc1	203 µM
C/C(=N\NC(=S)NCCc1ccccc1)c1ccc(C2CCCCC2)cc1	52.9 µM
